test: Pharmacokinetics in CD1 male mice (plasma, HPLC-MS); type: in vivo; conditions: male, CD1, mouse, plasma, po, 10 mg/kg, PO 10 mg/kg, Mean of 4 mice
quantityMeasured: AUC(0-t)

Asked: What value of measured AUC(0-t) is listed for CCCc1cc(O)c(C2CC(C)CCC2C(C)C)c(O)c1 (racemic) [CCL-106, hexahydrocannabidivarin] ?
Given back: 316 ng·h/mL

----------
assay: Pharmacokinetics in CD1 male mice (plasma, HPLC-MS); type: in vivo; conditions: male, CD1, mouse, plasma, iv, 10 mg/kg, IV 10 mg/kg, Mean of 4 mice
quantityMeasured: AUC(0-inf) (ng·h/mL)
Kindly provide the numeric value in ng·h/mL only, without the unit symbol.

Asked: What value of measured AUC(0-inf) is listed for CCCc1cc(O)c(C2CC(C)CCC2C(C)C)c(O)c1 (racemic) [CCL-106, hexahydrocannabidivarin] ?
Given back: 2260

----------
experiment: Pharmacokinetics in CD1 male mice (plasma, HPLC-MS); type: in vivo; details: male, CD1, mouse, plasma, iv, 10 mg/kg, IV 10 mg/kg, individual mouse; read-out: Vss—obs
quantityMeasured: Vd (L/kg)
Kindly provide the numeric value in L/kg only, without the unit symbol.

Asked: What value of measured Vd is listed for CCCc1cc(O)c(C2CC(C)CCC2C(C)C)c(O)c1 (racemic) [CCL-106, hexahydrocannabidivarin] ?
Given back: 8.18

----------
test: Pharmacokinetics in CD1 male mice (plasma, HPLC-MS); format: in vivo; settings: male, CD1, mouse, plasma, po, 10 mg/kg, PO 10 mg/kg, individual mouse
quantityMeasured: bioavailability
Please answer in the form of a number followed by its unit of measurement.

Asked: What value of measured bioavailability is listed for CCCc1cc(O)c(C2CC(C)CCC2C(C)C)c(O)c1 (racemic) [CCL-106, hexahydrocannabidivarin] ?
Given back: 16.9%

----------
test: Pharmacokinetics in CD1 male mice (plasma, HPLC-MS); format: in vivo; settings: male, CD1, mouse, plasma, po, 10 mg/kg, PO 10 mg/kg, individual mouse
quantityMeasured: AUC(0-t) (ng·h/mL)
Kindly provide the numeric value in ng·h/mL only, without the unit symbol.

Asked: What value of measured AUC(0-t) is listed for CCCc1cc(O)c(C2CC(C)CCC2C(C)C)c(O)c1 (racemic) [CCL-106, hexahydrocannabidivarin] ?
Given back: 314

----------
test: Pharmacokinetics in CD1 male mice (plasma, HPLC-MS); format: in vivo; details: male, CD1, mouse, plasma, iv, 10 mg/kg, IV 10 mg/kg, Mean of 4 mice; read-out: MRTInf—obs
quantityMeasured: MRT inf (h)
Kindly provide the numeric value in h only, without the unit symbol.

Asked: What value of measured MRT inf is listed for CCCc1cc(O)c(C2CC(C)CCC2C(C)C)c(O)c1 (racemic) [CCL-106, hexahydrocannabidivarin] ?
Given back: 2.1

----------
assay: Pharmacokinetics in CD1 male mice (plasma, HPLC-MS); format: in vivo; conditions: male, CD1, mouse, plasma, iv, 10 mg/kg, IV 10 mg/kg, individual mouse
quantityMeasured: AUC(0-t) (ng·h/mL)
Kindly provide the numeric value in ng·h/mL only, without the unit symbol.

Asked: What value of measured AUC(0-t) is listed for CCCc1cc(O)c(C2CC(C)CCC2C(C)C)c(O)c1 (racemic) [CCL-106, hexahydrocannabidivarin] ?
Given back: 1730

----------
assay: Pharmacokinetics in CD1 male mice (plasma, HPLC-MS); assay type: in vivo; settings: male, CD1, mouse, plasma, iv, 10 mg/kg, IV 10 mg/kg, Mean of 4 mice; read-out: Vss—obs
quantityMeasured: Vd
Please answer in the form of a number followed by its unit of measurement.

Asked: What value of measured Vd is listed for CCCc1cc(O)c(C2CC(C)CCC2C(C)C)c(O)c1 (racemic) [CCL-106, hexahydrocannabidivarin] ?
Given back: 9.3 L/kg

----------
test: Pharmacokinetics in CD1 male mice (plasma, HPLC-MS); assay type: in vivo; settings: male, CD1, mouse, plasma, po, 10 mg/kg, PO 10 mg/kg, Mean of 4 mice
quantityMeasured: AUC(0-inf) (ng·h/mL)
Kindly provide the numeric value in ng·h/mL only, without the unit symbol.

Asked: What value of measured AUC(0-inf) is listed for CCCc1cc(O)c(C2CC(C)CCC2C(C)C)c(O)c1 (racemic) [CCL-106, hexahydrocannabidivarin] ?
Given back: 429

----------
test: Pharmacokinetics in CD1 male mice (plasma, HPLC-MS); type: in vivo; details: male, CD1, mouse, plasma, po, 10 mg/kg, PO 10 mg/kg, individual mouse
quantityMeasured: Tmax (min)
Kindly provide the numeric value in min only, without the unit symbol.

Asked: What value of measured Tmax is listed for CCCc1cc(O)c(C2CC(C)CCC2C(C)C)c(O)c1 (racemic) [CCL-106, hexahydrocannabidivarin] ?
Given back: 15

----------
assay: Pharmacokinetics in CD1 male mice (plasma, HPLC-MS); format: in vivo; settings: male, CD1, mouse, plasma, iv, 10 mg/kg, IV 10 mg/kg, Mean of 4 mice; read-out: C0
quantityMeasured: C0 (ng/mL)
Kindly provide the numeric value in ng/mL only, without the unit symbol.

Asked: What value of measured C0 is listed for CCCc1cc(O)c(C2CC(C)CCC2C(C)C)c(O)c1 (racemic) [CCL-106, hexahydrocannabidivarin] ?
Given back: 4820

----------
test: Pharmacokinetics in CD1 male mice (plasma, HPLC-MS); assay type: in vivo; conditions: male, CD1, mouse, plasma, po, 10 mg/kg, PO 10 mg/kg, individual mouse
quantityMeasured: AUC(0-inf) (ng·h/mL)
Kindly provide the numeric value in ng·h/mL only, without the unit symbol.

Asked: What value of measured AUC(0-inf) is listed for CCCc1cc(O)c(C2CC(C)CCC2C(C)C)c(O)c1 (racemic) [CCL-106, hexahydrocannabidivarin] ?
Given back: 383

----------
assay: Pharmacokinetics in CD1 male mice (plasma, HPLC-MS); format: in vivo; conditions: male, CD1, mouse, plasma, iv, 10 mg/kg, IV 10 mg/kg, individual mouse; read-out: C0
quantityMeasured: C0 (ng/mL)
Kindly provide the numeric value in ng/mL only, without the unit symbol.

Asked: What value of measured C0 is listed for CCCc1cc(O)c(C2CC(C)CCC2C(C)C)c(O)c1 (racemic) [CCL-106, hexahydrocannabidivarin] ?
Given back: 3720

----------
system: HPAFII; assay: IC50 in cell lines (Table 4), HPAFII; assay type: cell-based; settings: Homo sapiens, HPAF-II
quantityMeasured: IC50 (mM)
Kindly provide the numeric value in mM only, without the unit symbol.

molecule: CCCCCc1cc(O)c2c(c1)OC(C)(C)C1CC[C@H](C)CC21 (stereo partly drawn) [CCL-102, 9S-Hexahydrocannabinol]
reportedMeasurement: 0.00702

Asked: What value of measured IC50 is listed for CCCCCc1cc(O)c2c(c1)OC(C)(C)C1CC[C@@H](C)CC21 (stereo partly drawn) [CCL-101, 9R-Hexahydrocannabinol] ?
Given back: 0.00884

----------
assay: Pharmacokinetics in CD1 male mice (plasma, HPLC-MS); format: in vivo; settings: male, CD1, mouse, plasma, po, 10 mg/kg, PO 10 mg/kg, Mean of 4 mice
quantityMeasured: half-life
Please answer in the form of a number followed by its unit of measurement.

Asked: What value of measured half-life is listed for CCCc1cc(O)c(C2CC(C)CCC2C(C)C)c(O)c1 (racemic) [CCL-106, hexahydrocannabidivarin] ?
Given back: 248 min

----------
assay: Pharmacokinetics in CD1 male mice (plasma, HPLC-MS); assay type: in vivo; settings: male, CD1, mouse, plasma, iv, 10 mg/kg, IV 10 mg/kg, individual mouse; read-out: MRTInf—obs
quantityMeasured: MRT inf (h)
Kindly provide the numeric value in h only, without the unit symbol.

Asked: What value of measured MRT inf is listed for CCCc1cc(O)c(C2CC(C)CCC2C(C)C)c(O)c1 (racemic) [CCL-106, hexahydrocannabidivarin] ?
Given back: 1.62

----------
assay: Pharmacokinetics in CD1 male mice (plasma, HPLC-MS); assay type: in vivo; conditions: male, CD1, mouse, plasma, po, 10 mg/kg, PO 10 mg/kg, Mean of 4 mice; read-out: Cmax
quantityMeasured: Cmax (ng/mL)
Kindly provide the numeric value in ng/mL only, without the unit symbol.

Asked: What value of measured Cmax is listed for CCCc1cc(O)c(C2CC(C)CCC2C(C)C)c(O)c1 (racemic) [CCL-106, hexahydrocannabidivarin] ?
Given back: 222

----------
test: Pharmacokinetics in CD1 male mice (plasma, HPLC-MS); format: in vivo; conditions: male, CD1, mouse, plasma, iv, 10 mg/kg, IV 10 mg/kg, individual mouse
quantityMeasured: AUC(0-inf) (ng·h/mL)
Kindly provide the numeric value in ng·h/mL only, without the unit symbol.

Asked: What value of measured AUC(0-inf) is listed for CCCc1cc(O)c(C2CC(C)CCC2C(C)C)c(O)c1 (racemic) [CCL-106, hexahydrocannabidivarin] ?
Given back: 1980
